All figures here come from patent US7491827B2.

- target system: cloned human CCR8 receptor stably expressed in L1.2 cells (Homo sapiens, UniProt P51685)
- Construct: expressed in transfected cells
- Sequence (P51685 whole entry): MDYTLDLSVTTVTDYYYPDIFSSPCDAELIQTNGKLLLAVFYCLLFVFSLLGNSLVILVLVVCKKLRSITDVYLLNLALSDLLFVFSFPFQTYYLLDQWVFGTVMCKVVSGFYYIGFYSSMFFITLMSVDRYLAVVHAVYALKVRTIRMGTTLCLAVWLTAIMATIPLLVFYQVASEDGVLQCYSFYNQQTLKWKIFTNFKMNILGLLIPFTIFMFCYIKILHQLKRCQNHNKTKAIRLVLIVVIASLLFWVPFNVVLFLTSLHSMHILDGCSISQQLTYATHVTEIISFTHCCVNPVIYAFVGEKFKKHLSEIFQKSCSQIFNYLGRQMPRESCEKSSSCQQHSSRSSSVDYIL
- measurement description: whole cell binding screen: inhibition of biotinylated human I309 binding to CCR8 (FMAT 8100 HTS)
- experimental setup: L1.2/hCCR8 cells, biotinylated human I-309, 10 point concentration response starting at 10 μM; read-out: Ki of compounds to inhibit I-309 binding to CCR8
readout kind: Ki

O=C(NC1CCOCC1)c1ccc(S(=O)(=O)NC2CCNCC2)c2ccccc12
< 30000 nM
CCCC(=O)N1CC[C@H](NS(=O)(=O)c2ccc(NC(=O)c3ccccc3C)c3ccccc23)[C@@H](C)C1 (racemic)
< 500 nM
CCCC(=O)N1CCC(NS(=O)(=O)c2ccc(C(=O)Nc3ccccc3C)c3ccccc23)CC1
< 500 nM
CCOC(=O)N1CCC(NS(=O)(=O)c2cccc3c(NC(=O)c4cccs4)cccc23)CC1
< 1000 nM

Input CCOC(=O)N1CCC(NS(=O)(=O)c2ccc(NC(=O)c3ccccc3C)c3c2CN(CC)CC3)CC1 , output reported Ki. < 500 nM

Input Cc1ccccc1C(=O)Nc1cccc2c(S(=O)(=O)NC3CCN(C(=O)N4CCOCC4)CC3)cccc12 , output reported Ki. < 500 nM
